- measured-on: lipoxygenase (Rattus norvegicus, UniProt P12527)
- Construct: Single cell suspensions of RBL-1 cells are homogenized to obtain the microsomal fraction containing lipoxygenase and cyclooxygenase; endogenous in cells; host or cells: RBL-1 (rat basophilic leukemia) cells, homogenate / microsomal fraction
- Sequence (P12527 1-673): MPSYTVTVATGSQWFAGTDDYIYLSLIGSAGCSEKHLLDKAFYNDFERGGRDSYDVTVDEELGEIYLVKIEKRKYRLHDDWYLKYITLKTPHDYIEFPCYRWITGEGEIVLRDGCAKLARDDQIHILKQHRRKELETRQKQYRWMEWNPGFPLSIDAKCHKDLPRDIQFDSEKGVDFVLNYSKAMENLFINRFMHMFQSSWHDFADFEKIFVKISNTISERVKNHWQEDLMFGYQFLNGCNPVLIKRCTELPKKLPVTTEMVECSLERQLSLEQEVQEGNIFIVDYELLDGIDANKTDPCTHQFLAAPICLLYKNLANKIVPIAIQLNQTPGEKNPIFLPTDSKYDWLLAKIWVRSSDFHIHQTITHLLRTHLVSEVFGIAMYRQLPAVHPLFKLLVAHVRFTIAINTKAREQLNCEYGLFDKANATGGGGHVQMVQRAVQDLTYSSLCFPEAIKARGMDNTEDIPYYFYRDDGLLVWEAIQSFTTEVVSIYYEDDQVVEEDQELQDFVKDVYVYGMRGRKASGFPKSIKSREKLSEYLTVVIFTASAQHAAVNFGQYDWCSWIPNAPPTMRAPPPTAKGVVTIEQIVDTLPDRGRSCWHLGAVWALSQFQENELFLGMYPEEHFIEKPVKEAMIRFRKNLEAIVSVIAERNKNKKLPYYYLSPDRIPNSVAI
- assay-text: Inhibition of lipoxygenase derived from rat basophilic leukemia (RBL-1) cells, formation of products 5,12-di-HETE (L1) and 5-HETE (L2)
- Type: biochemical
- condition-summary: IC50, L1 (lipoxygenase product 5,12-di-HETE formation), L1, 5,12-di-HETE; RBL-1 homogenate
In this section, each of the compounds is paired with its reported IC50.
Your answer should be a plain number; it is taken to be in nM.

Some entries whose results are on file:
compound: CCOC(=O)c1ccccc1Nc1ccc(O)c(Cl)c1 [Example 5c]
assay-metric: IC50
observed-value: 670
--
compound: CCOC(=O)c1cc(OC)ccc1Nc1ccc(O)cc1 [Example 3d]
assay-metric: IC50
observed-value: 110
--
compound: CCOC(=O)c1ccccc1Nc1ccccc1O [Example 1d, Ethyl 2-(2-hydroxyphenylamino)benzoate]
assay-metric: IC50
observed-value: 160

Turning to the following compound.
Q: Give the measured IC50 of CCOC(=O)c1ccccc1Nc1ccc(O)cc1 [Example 2b, Ethyl 2-(4-hydroxyphenylamino)benzoate] .
Ans: 340

These measurements were taken from patent US4515980A.
